Source of measurements: PubChem BioAssay (NCI)

- Test system: TK-10 renal
- experiment summary: NCI-60 one-dose screen, 48 h
- condition label: 10 µM unless noted
- Method: Growth inhibition of the TK-10 human tumor cell line is measured as a screen for anti-cancer activity. Cells are grown in 96 well plates and exposed to the test compound for 48 hours. Compounds are tested at a single concentration, which is 10^-5 M for most compounds. The reported endpoint is percent growth (GI% or GIPRCNT), where numbers from 0 - 100% represent growth inhibition, and numbers from -100% - 0 represent cell death. For example, a value of 40 represents 60% growth inhibition. […]
This is part of a sample that, as a whole, favours compounds with a hit. Of some 83,000 tested, about 20% had one in any assay. Activity calls are given as the source filed them. Rule for the calls: active = growth percent below 10; inactive = the rest.
Parameter call: string, one of active, inactive

Name the outcome recorded for `Cc1cc(=O)n(C(=O)Nc2ccccc2Cl)c2cc(O)ccc12` in the assay.
inactive

Name the outcome recorded for `COC(=O)c1cc(N=C2NC(=O)/C(=C/C=C/c3ccccc3)S2)ccc1O` in the assay.
inactive

Name the outcome recorded for COC(=O)CC[C@H](C)[C@H]1CC[C@H]2[C@@H]3CC[C@@H]4CC5(CC[C@]4(C)[C@H]3CC(=O)[C@]12C)Nc1ccccc1NC5=NC(C)(C)C (stereo partly specified) in the assay.
inactive
